Would you mind telling me the reported residual activity of each entry?
- target or test system: PNCK (human)
- experiment notes: radiometric filter-binding kinase assay, Kinase HotSpot
- experimental setup: compound 0.5 µM; ATP 10 µM
Lab book: enter the figure in %, no units written.

Query :: # lookup: residual activity of Nc1nccc(-c2c(-c3ccc(F)cc3)ncn2C2CCNCC2)n1
Result :: 94.3

Query :: Try the compound COc1cc2ncnc(N3CCN(C(=O)Nc4ccc(Oc5ccccc5)cc4)CC3)c2cc1OC
Result :: 94.3

Query :: Try the compound CC(C)[C@H](CO)Nc1nc(Nc2cc(N)cc(Cl)c2)c2ncn(C(C)C)c2n1
Result :: 132

Query :: Try the compound COc1cc2ncc(-c3ccccc3)nc2cc1OC
Result :: 98.2

Query :: Try the compound O=C1NC(=O)/C(=C\c2ccc3nccnc3c2)S1
Result :: 101

Query :: Try the compound CN([C@@H](Cc1ccc(OS(=O)(=O)c2cccc3cnccc23)cc1)C(=O)N1CCN(c2ccccc2)CC1)S(=O)(=O)c1cccc2cnccc12
Result :: 99.7

Query :: Try the compound Oc1ccc(Nc2nc(-c3ccc(Cl)cc3)cs2)cc1
Result :: 100

Query :: Try the compound O=C1Nc2ccccc2/C1=C1/Nc2ccccc2/C1=N\OCCC(O)CO (stereo unspecified)
Result :: 101

Query :: Try the compound O=C1Nc2ccccc2/C1=C1\Nc2ccccc2\C1=N/O
Result :: 106

Query :: Try the compound Cn1sc(=O)n(Cc2ccccc2)c1=O
Result :: 98.7

Query :: Try the compound COc1ccc(CNC(=O)Nc2ncc([N+](=O)[O-])s2)cc1
Result :: 99.3

###

- target or test system: FES (human) (UniProt P07332)
- Sequence (P07332 whole entry, looked up): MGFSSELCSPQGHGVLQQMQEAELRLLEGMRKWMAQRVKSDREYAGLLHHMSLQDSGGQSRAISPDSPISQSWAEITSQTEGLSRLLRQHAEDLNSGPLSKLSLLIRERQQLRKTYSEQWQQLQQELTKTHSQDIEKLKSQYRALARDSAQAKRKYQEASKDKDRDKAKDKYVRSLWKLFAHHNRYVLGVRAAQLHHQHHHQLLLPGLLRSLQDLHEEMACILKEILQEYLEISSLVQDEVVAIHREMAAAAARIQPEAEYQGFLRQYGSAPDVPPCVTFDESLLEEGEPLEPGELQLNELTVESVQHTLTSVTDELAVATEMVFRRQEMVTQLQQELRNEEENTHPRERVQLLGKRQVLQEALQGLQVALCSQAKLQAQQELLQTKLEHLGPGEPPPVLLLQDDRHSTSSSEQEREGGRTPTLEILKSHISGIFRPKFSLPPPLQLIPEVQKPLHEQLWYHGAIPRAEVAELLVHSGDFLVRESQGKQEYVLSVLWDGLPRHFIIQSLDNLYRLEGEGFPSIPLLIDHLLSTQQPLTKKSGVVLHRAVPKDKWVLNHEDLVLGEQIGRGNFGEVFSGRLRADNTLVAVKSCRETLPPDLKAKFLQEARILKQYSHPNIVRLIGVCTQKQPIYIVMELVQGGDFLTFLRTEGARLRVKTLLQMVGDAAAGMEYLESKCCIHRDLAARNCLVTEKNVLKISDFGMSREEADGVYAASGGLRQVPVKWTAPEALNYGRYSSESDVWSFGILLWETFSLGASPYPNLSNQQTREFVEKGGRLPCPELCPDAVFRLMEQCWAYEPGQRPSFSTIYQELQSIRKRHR
- experiment notes: radiometric filter-binding kinase assay, Kinase HotSpot
- experimental setup: compound 0.5 µM; ATP 10 µM
quantity name: residual activity (%)
Lab book: enter the figure in %, no units written.

Query :: # lookup: residual activity of COc1cc2ncnc(N3CCN(C(=O)Nc4ccc(Oc5ccccc5)cc4)CC3)c2cc1OC
Result :: 98.3

Query :: Try the compound CCn1cnc2c(Nc3cccc(Cl)c3)nc(N[C@@H]3CCCC[C@@H]3N)nc21
Result :: 83.5

Query :: Try the compound CC(C)c1nn(-c2c(Cl)cccc2Cl)c2nc(Cc3ccc(OCCO)cc3)nc(O)c12
Result :: 97.1

Query :: Try the compound O=C(CCCc1ccc(-c2ccccc2F)cc1)Nc1ccc(O)cc1
Result :: 100

###

- target or test system: CDK9 CCNK (human) (UniProt O75909+P50750)
- Sequence (O75909 whole entry, looked up): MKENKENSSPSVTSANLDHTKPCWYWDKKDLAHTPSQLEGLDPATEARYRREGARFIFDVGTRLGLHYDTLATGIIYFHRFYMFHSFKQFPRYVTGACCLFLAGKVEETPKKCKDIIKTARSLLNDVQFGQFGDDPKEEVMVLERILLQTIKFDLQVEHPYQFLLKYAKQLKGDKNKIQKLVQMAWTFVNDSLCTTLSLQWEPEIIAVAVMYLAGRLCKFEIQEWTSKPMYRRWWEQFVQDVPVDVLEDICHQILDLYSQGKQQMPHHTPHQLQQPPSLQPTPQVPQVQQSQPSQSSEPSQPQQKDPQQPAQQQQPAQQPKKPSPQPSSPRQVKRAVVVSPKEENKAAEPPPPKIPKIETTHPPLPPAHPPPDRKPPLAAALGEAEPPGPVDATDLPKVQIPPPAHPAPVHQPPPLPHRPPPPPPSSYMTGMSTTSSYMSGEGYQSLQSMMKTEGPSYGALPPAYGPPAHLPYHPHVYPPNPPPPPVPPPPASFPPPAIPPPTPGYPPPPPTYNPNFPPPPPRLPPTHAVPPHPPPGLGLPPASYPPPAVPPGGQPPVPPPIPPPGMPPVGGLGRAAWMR
- Sequence (P50750 whole entry, looked up): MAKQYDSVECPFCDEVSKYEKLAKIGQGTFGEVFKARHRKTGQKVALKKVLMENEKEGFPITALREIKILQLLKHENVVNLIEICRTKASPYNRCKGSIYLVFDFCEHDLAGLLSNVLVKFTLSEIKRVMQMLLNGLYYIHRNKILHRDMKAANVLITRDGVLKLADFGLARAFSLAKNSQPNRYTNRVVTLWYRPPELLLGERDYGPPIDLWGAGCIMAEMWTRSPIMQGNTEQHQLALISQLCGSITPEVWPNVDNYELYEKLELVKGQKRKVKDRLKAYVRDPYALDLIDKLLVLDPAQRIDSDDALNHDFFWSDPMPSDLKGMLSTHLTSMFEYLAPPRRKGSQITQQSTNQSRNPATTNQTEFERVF
- experiment notes: radiometric filter-binding kinase assay, Kinase HotSpot
- experimental setup: compound 0.5 µM; ATP 10 µM
quantity name: residual activity (%)
Lab book: enter the figure in %, no units written.

Query :: # lookup: residual activity of O=C1NC(=O)C(c2c[nH]c3ccccc23)=C1c1c[nH]c2ccccc12
Result :: 80

Query :: Try the compound COc1cc2ncc(-c3ccccc3)nc2cc1OC
Result :: 102

Query :: Try the compound c1cc(-c2cnn3cc(-c4ccc(OCCN5CCCCC5)cc4)cnc23)ccn1
Result :: 36.7

Query :: Try the compound Cn1cnc2cc3c(Nc4cccc(Br)c4)ncnc3cc21
Result :: 100

Query :: Try the compound CCN(CC)CCCCN1c2ccccc2Oc2ccc(Cl)cc21
Result :: 105
